experiment: activity at 30-90 °C; conditions: glycan gained; control: wild type
endpointName: other: optimal temperature of activity

# protein, recordedValue
data = [
    ("CTendo45: F143T (protein) parent chain: MHLSQLALPLLLAAGAHAQGAQGTGRTTRYWDCCKPSCAWPGKSNALQPVQTCNAQDQPLNDGGNTRSGCDSGGSAFMCSNQSPWALNETLSYGWAAVRIAGQSEFNWCCACYELTFTSGPVAGKKMIVQATNTGGDLGSNHFDIAIPGGGVGIFNACTQQYGAPPNGWGERYGGIRSRSECDSFPEALKAGCYWRFDWFLGADNPDVSFKQVACPAAITAKSKCVRQRDVIDQTPTGPEIVPTWTP", "no change"),
    ("CTendo45: W169S (protein) parent chain: MHLSQLALPLLLAAGAHAQGAQGTGRTTRYWDCCKPSCAWPGKSNALQPVQTCNAQDQPLNDGGNTRSGCDSGGSAFMCSNQSPWALNETLSYGWAAVRIAGQSEFNWCCACYELTFTSGPVAGKKMIVQATNTGGDLGSNHFDIAIPGGGVGIFNACTQQYGAPPNGWGERYGGIRSRSECDSFPEALKAGCYWRFDWFLGADNPDVSFKQVACPAAITAKSKCVRQRDVIDQTPTGPEIVPTWTP", "no change"),
]
